Target under test: Thyrotropin receptor (Homo sapiens) (UniProt P16473)
Sequence (P16473 whole entry, looked up): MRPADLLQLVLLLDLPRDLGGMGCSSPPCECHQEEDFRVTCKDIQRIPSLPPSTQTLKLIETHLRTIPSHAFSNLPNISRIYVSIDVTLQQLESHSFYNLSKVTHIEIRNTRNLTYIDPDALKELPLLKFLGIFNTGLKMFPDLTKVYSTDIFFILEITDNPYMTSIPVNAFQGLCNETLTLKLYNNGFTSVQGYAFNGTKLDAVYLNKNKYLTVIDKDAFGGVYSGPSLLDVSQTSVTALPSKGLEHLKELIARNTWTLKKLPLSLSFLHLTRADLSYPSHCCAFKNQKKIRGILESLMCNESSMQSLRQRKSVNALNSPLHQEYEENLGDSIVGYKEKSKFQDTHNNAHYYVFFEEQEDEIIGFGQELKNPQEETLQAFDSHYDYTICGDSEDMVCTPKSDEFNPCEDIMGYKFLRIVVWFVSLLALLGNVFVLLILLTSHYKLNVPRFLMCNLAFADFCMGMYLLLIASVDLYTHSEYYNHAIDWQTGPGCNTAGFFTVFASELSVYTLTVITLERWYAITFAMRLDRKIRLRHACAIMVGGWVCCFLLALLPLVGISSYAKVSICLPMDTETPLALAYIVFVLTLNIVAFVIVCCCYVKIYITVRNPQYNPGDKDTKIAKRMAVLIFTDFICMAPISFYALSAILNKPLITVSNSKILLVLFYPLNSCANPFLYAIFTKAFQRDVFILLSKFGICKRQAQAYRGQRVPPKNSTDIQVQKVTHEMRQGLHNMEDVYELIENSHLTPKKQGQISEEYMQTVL
Assay method text: qHTS Assay for Antagonists of the Thyroid Stimulating Hormone Receptor: SAR for Probe
Condition description: HEK293-TSHR, TSH-stimulated cAMP HTRF, 2 h; series mostly up to 57.5 µM
Inconclusive results are not listed. Active and inactive are the calls of the source. The call rests on the fitted dose curve; in most records, active means well fitted curve in the direction sought with a large enough effect; inconclusive means small, poorly fitted or top-dose-only effect, or effect the other way, or another doubt; inactive means no such curve, though single readings can be large or run the other way.

Compound | outcome
COc1ccc(C2Nc3ccccc3C(=O)N2Cc2ccccc2)cc1COc1ccc(NC(=O)c2ccccc2)cc1 (centres undefined) | inactive
COc1ccc(C2Nc3ccccc3C(=O)N2Cc2ccccc2)cc1COc1cccc(C)c1 (centres undefined) | inactive
COc1ccc(C2Nc3ccccc3C(=O)N2Cc2ccco2)cc1COc1ccccc1C (centres undefined) | inactive
COc1ccc(OCc2cc(C3Nc4ccccc4C(=O)N3Cc3ccccc3)ccc2OC)cc1 (centres undefined) | inactive
COc1ccc(C2Nc3ccccc3C(=O)N2CCO)cc1COc1c(C)cc(NC(C)=O)cc1C (centres undefined) | inactive
COc1ccc(C2Nc3cccc(OC)c3C(=O)N2Cc2ccco2)cc1COc1c(C)cc(NC(C)=O)cc1C (centres undefined) | inactive
COc1ccc(CN2C(=O)N(c3ccccc3)C(=O)C2c2ccccc2)cc1COc1ccc(NC(C)=O)cc1 (centres undefined) | inactive
O=c1c2ccccc2nc(-c2ccccc2O)n1Cc1ccccc1 | inactive
COc1ccc(C2Nc3ccccc3C(=O)N2Cc2cccs2)cc1COc1c(C)cc(NC(C)=O)cc1C (centres undefined) | inactive
